The measurements presented in this section are drawn from paper PMC5540273.

test system: TXK; conditions: concentration: 1 μM, replicates: in singlicate; n = 1;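 note: KINOMEscan kinase panel screen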
Please go through the items and note down their %Inh.
Give bare numbers, in %.

Some compounds with known %Inh results, for comparison:
Clc1cc(Cl)cc(Nc2ccnc(Nc3cc(Cl)cc(Cl)c3)n2)c1 :: 0
COC(=O)c1c(-c2ccccc2)c2cc(C(=O)O)ccc2c(=O)n1Cc1ccccc1 :: 0

Go through the list and state %Inh for each entry.
1. Cc1c(O)cccc1Nc1ccnc2ccc(C(F)(F)F)cc12.Cl
2. Fc1cccc(COc2nnc(-c3ccc4c(c3)CCO4)o2)c1
3. Cc1ccc(NC(=O)Nc2cccc(Cl)c2)cc1-c1ccc(C(=O)Nc2ccncc2)cc1

**Result**
1. 25
2. 0
3. 0

====

Consider the following compounds; for each one, report its %Inh.
system: GRK3; construct: gene ADRBK2; conditions: concentration: 1 μM, replicates: in singlicate; n = 1
Numbers only, in %.

Previously resolved entries follow.
CN(C)CCN(C)C(=O)c1cc(-c2ccncc2)c(-c2ccc(Cl)c(O)c2)o1.Cl.Cl :: 54
Cc1ccc(NC(=O)Nc2cc(C(C)(C)C)nn2-c2ccccc2)cc1 :: 92.4
Cn1ccc2ncnc(Oc3cccc(C(=O)Nc4ccccc4)c3)c21 :: 8

Would you mind listing %Inh for each of the following compounds?
1. Cc1csc(-c2nc(Nc3ccncc3)c3ccccc3n2)n1
2. CC(C)(C)c1ccc(C(=O)Nc2cn3cc(-c4cccnc4)ccc3n2)cc1
3. CS(=O)(=O)c1ccc(-c2nc3n(c2-c2ccncc2)CCC3)cc1
4. COc1ccccc1-c1ccc2c(NC(=O)C3CC3)n[nH]c2n1

**Result**
1. 0
2. 0
3. 24
4. 0

Batch of 2 compounds: report %Inh for each.
1. Cc1ccccc1-n1cnc2c(N)ncnc21
2. Fc1cc(Cl)ccc1Nc1ccnc2cc(-c3ccc(CN4CCCCC4)o3)ccc12

**Result**
[0, 18]

====

test system: CHEK1; settings: concentration: 1 μM, replicates: in singlicate; n = 1
Test Readout: %Inh

Recorded results for 5 molecules are shown here.
COc1ccc2nc(-c3cccc(C)n3)nc(Nc3ccncc3)c2c1 :: 10%
CCn1c(-c2cccnc2O)nc2cnccc21 :: 0%
CN(C)CCN(C)C(=O)c1cc(-c2ccncc2)c(-c2ccc(Cl)c(O)c2)o1.Cl.Cl :: 9%
Cc1c(O)cccc1Nc1ccnc2ccc(C(F)(F)F)cc12.Cl :: 0%
COc1ccccc1-c1ccc2c(NC(=O)C3CC3)n[nH]c2n1 :: 11%

Provide the reported %Inh of each entry below, same order.
1. CS(=O)(=O)c1ccc(-c2nc3n(c2-c2ccncc2)CCC3)cc1
2. CC(C)(C)c1ccc(C(=O)Nc2cn3cc(-c4cccnc4)ccc3n2)cc1

**Result**
0%
25%

**Query** What does the data say about its %Inh? Entry: COc1ccc(CNC(=O)NC2CCN(c3ccnc(Nc4cc(OC)c(OC)c(OC)c4)n3)C2)cc1 (centres unmarked)
**Result** 0%

====

Kindly supply the reported %Inh values for the records listed here.
system: CTK; construct: gene MATK; conditions: concentration: 1 μM, replicates: in singlicate; n = 1
Answers are plain numbers, in %.

As a guide, the following entries are already answered.
Cl.c1ccc(-c2n[nH]cc2-c2ccnc(-c3ccc(CN4CCOCC4)cc3)c2)nc1 :: 0
COC(=O)c1c(-c2ccccc2)c2cc(OC)ccc2c(=O)n1Cc1ccccc1 :: 26
Cl.O=C(Nc1cccc(-c2nn3ncccc3c2-c2ccnc(Nc3cccnc3)n2)c1)c1c(F)cccc1F :: 25
Cc1cccc(-c2nc(C)cc(Nc3ccncc3)n2)n1 :: 0
Fc1cc(Cl)ccc1Nc1ccnc2cc(-c3ccc(CN4CCCCC4)o3)ccc12 :: 0

Could you tell me %Inh for each of these molecules? They are listed below.
1. COc1cccc(NC(=O)NC2CCN(c3ccnc(Nc4ccc(F)cc4)n3)C2)c1 (centres unmarked)
2. C[C@@H]1CCCCN1c1cc(-c2ccc3c(N)n[nH]c3c2)nc(N)n1
3. COc1ccc(Nc2nccc(-c3cccc(NC(=O)c4cc5cc(F)ccc5[nH]4)c3)n2)cc1

**Result**
1: 0; 2: 0; 3: 0

====

system: CDKL2; details: concentration: 1 μM, replicates: in singlicate; n = 1
For each of the compounds below, state its %Inh.
Give bare numbers, in %.

Example entries and their recorded answers appear below.
COc1ccc(Nc2nccc(-c3cccc(NC(=O)c4cc5cc(F)ccc5[nH]4)c3)n2)cc1 :: 30
COc1cc(Nc2nccc(N3CCC(NC(=O)Nc4cc(C)ccc4C)C3)n2)cc(OC)c1OC (centres unmarked) :: 41

Below is a list of compounds. For each, state its recorded %Inh.
1. Cc1cccc(-c2nc(Nc3ccncc3)c3ccccc3n2)n1
2. Fc1cc(Cl)ccc1Nc1ccnc2cc(I)ccc12
3. COc1ccc2nc(-c3cccc(C)n3)nc(Nc3ccncc3)c2c1

**Result**
1. 10
2. 21
3. 24

====

tested on: ADCK4; settings: concentration: 1 μM, replicates: in singlicate; n = 1
Test Readout: %Inh (%)
Answers are plain numbers, in %.

Cc1nnc(-c2ccc3occ(-c4ccc(S(C)=O)cc4)c3c2)[nH]1 (stereo not shown) :: 0

Batch request: %Inh for each of the following compounds.
1. CC(C)(C)c1ccc(C(=O)Nc2cn3cc(Cl)ccc3n2)cc1
2. Cl.O=C(Nc1cccc(-c2nn3ncccc3c2-c2ccnc(Nc3cccnc3)n2)c1)c1c(F)cccc1F [GSK312879]

**Result**
1. 0
2. 2

Go through the items and report each one's %Inh.
1. O=C(Nc1ccccc1)Nc1cccc(Oc2ccc3nccn3n2)c1
2. CN1C(=O)C(Nc2ccc(Cl)c(C(=O)O)c2)=C(c2ccc(Cl)cc2)C1=O [SB-404290]

**Result**
1: 18; 2: 10

====

tested on: ARK5; construct: gene NUAK1; conditions: concentration: 1 μM, replicates: in singlicate; n = 1
I'd be grateful if you could share measured %Inh for these entries.
Answers are plain numbers, in %.

Provide %Inh values for the following items, in order.
1. CS(=O)(=O)c1ccc(-c2nc3n(c2-c2ccncc2)CCC3)cc1
2. NC(=O)c1nnc2ccccc2c1N
3. O=C1NC(=O)C(N2CCc3ccccc32)=C1c1ccccc1Cl
4. O=c1cc(N2CCOCC2)nc2n(Cc3cccc(Cl)c3Cl)ccn12
5. Cc1cccc(-c2nc(C)cc(Nc3ccncc3)n2)n1
6. Cc1ccc(-c2cc(-c3c[nH]nc3-c3ccccn3)ccn2)cc1
7. Cl.Oc1ccc(-c2nc(-c3ccccc3)[nH]c2-c2ccncc2)cc1
8. COc1ccccc1CNC(=O)c1cc(C(=O)c2ccccc2C)c[nH]1

**Result**
8
0
10
24
0
94.7
62
10

Hi! Can you tell me %Inh for each of these compounds?
1. CN(C)CCN(C)C(=O)c1cc(-c2ccncc2)c(-c2ccc(Cl)c(O)c2)o1.Cl.Cl
2. Cc1ccc(C(=O)Nc2ccc(Nc3ccnc4cc(-c5ccccn5)ccc34)cc2O)cc1.Cl
3. COc1ccccc1-c1ccc2c(NC(=O)C3CC3)n[nH]c2n1
4. Cc1cccc(-c2nc(Nc3ccncc3)c3ccccc3n2)n1
5. COC(=O)c1c(-c2ccccc2)c2cc(OC)ccc2c(=O)n1Cc1ccccc1
6. Cn1ccc2ncnc(Oc3ccc(Nc4nc5ccccc5[nH]4)cc3)c21
7. CC(C)(C)c1ccc(C(=O)Nc2cn3cc(Cl)ccc3n2)cc1
8. CS(=O)(=O)c1ccc(-c2c(-c3ncn[nH]3)sc(N3CCOCC3)c2C#N)cc1

**Result**
0
0
0
0
27
14
0
1

Report %Inh for every entry below.
1. Cn1cncc1-c1ccc2ncnc(Nc3ccc(OCc4ccccc4)cc3)c2c1
2. Cc1cccc(-c2nc(Nc3ccc4[nH]ncc4c3)c3ccccc3n2)n1
3. Cc1cc(N2Cc3ccccc3C2)nc(Nc2ccc(S(=O)(=O)N3CCOCC3)cc2)n1.Cl
4. O=C(Nc1n[nH]c2nc(-c3nccs3)c(Br)cc12)C1CCCC1
5. Cc1cc(NCC(c2ccccc2)c2ccccc2)nc(NCc2ccc(C(F)(F)F)cc2)n1
6. COc1ccc(CNC(=O)NC2CCN(c3ccnc(Nc4cc(OC)c(OC)c(OC)c4)n3)C2)cc1 (stereo not drawn)
7. O=C(O)COc1ncnc2cc(-c3ccc4[nH]ncc4c3)sc12
8. Cc1cccc(-c2nc(Nc3cccc(C(N)=O)c3)c3ccccc3n2)n1

**Result**
1. 72
2. 1
3. 0
4. 0
5. 13
6. 25
7. 0
8. 6

Hi team, please reply with %Inh for each item in this list.
1. Cc1cccc(-c2nc(-c3ccc(S(C)(=O)=O)cc3)sc2-c2ccnc(NCCc3ccccc3)c2)c1
2. Nc1ncnc2[nH]c(-c3ccccc3)nc12

**Result**
1: 11; 2: 0

====

test system: TESK1; settings: concentration: 1 μM, replicates: in singlicate; n = 1
What %Inh was measured for each of the following?
Give bare numbers, in %.

Worked set:
Cn1ccc2ncnc(Oc3ccc(NC(=O)Nc4ccccc4)cc3)c21 :: 1
Cc1c(Cn2ccn3c(=O)cc(N4CCOCC4)nc23)cccc1C(F)(F)F :: 17
Cn1ccc2ncnc(Oc3ccc(Nc4nc5ccccc5[nH]4)cc3)c21 :: 0
Cc1nnc(-c2ccc3occ(-c4ccc(S(C)=O)cc4)c3c2)[nH]1 (stereo not drawn) :: 2
Fc1cc(Cl)ccc1Nc1ccnc2cc(I)ccc12 :: 12

Quick batch: %Inh for everything below.
1. Cc1csc(-c2nc(Nc3ccncc3)c3ccccc3n2)n1
2. COc1ccc(C2=C(Nc3cccc(C(=O)O)c3)C(=O)NC2=O)cc1
3. COc1cccc(NC(=O)NC2CCN(c3ccnc(Nc4ccc(F)cc4)n3)C2)c1 (stereo not drawn)

**Result**
13
12
32

**Query** Can you share its %Inh? I mean this compound: `CS(=O)(=O)c1ccc(-c2c(-c3ncn[nH]3)sc(N3CCOCC3)c2C#N)cc1`
**Result** 0
